From: patent US7998987B2

The compounds listed here are annotated with their Ki.
# subject_of_test: c-Met (Homo sapiens)
# protocol_text: Ki determination for the inhibition of c-Met kinase activity (standard coupled enzyme system)
# Format: biochemical
# measurement_conditions: coupled enzyme system, 200 μM ATP, 10 μM polyGluTyr, 80 nM c-Met, 30° C.; read-out: c-Met Ki

The examples below pair each entry with its known result.
>>> df
                                   compound  observed_measurement
0  CC(C)[C@@H](N)C(=O)Oc1ccc([C@H](C)c2nnc3sc(Nc4cccc(F)c4)nn23)cc1              < 100 nM
1  CC(C)CC(C)Nc1ccc2nnc(Cc3ccc(O)cc3)n2n1 (centres unmarked)        100 to 2000 nM
2  Oc1ccc(Cc2nnc3sc(Nc4ccc(Cl)cc4)nn23)cc1F              < 100 nM
3  Oc1ccc(Cc2nnc3ccc(Nc4cccc(Cl)c4)nn23)cc1Cl              < 100 nM

Exercise: I'd like to know its Ki. The compound in question is COCC1CCCN1c1nn2c(Cc3ccc(OC)cc3)nnc2s1 (centres unmarked)
Solution: > 2000 nM

Exercise: Next compound up: "CNC(=O)c1cccc(Nc2ccc3nnc(Cc4ccc(OC)cc4)n3n2)c1"
Solution: 100 to 2000 nM

Exercise: Next compound up: CC1CCCC(Nc2ccc3nnc(Cc4ccc(O)cc4)n3n2)C1 (centres unmarked)
Solution: < 100 nM

Exercise: Next compound up: "Oc1ccc(CCc2nnc3sc(Nc4cc(F)cc(F)c4)nn23)cc1"
Solution: 100 to 2000 nM

Exercise: Next compound up: "Oc1ccc(CCc2nnc3sc(Nc4cccc(Cl)c4F)nn23)cc1"
Solution: 100 to 2000 nM

Exercise: Next compound up: "COc1cc(Cc2nnc3sc(Nc4ccccc4)nn23)ccc1O"
Solution: 100 to 2000 nM

Exercise: Next compound up: "Fc1c(Cl)cccc1Nc1nn2c(Cc3ccc4c(c3)OCO4)nnc2s1"
Solution: 100 to 2000 nM

---

# subject_of_test: c-Met (Homo sapiens, UniProt P08581)
# Sequence (P08581 25-1390): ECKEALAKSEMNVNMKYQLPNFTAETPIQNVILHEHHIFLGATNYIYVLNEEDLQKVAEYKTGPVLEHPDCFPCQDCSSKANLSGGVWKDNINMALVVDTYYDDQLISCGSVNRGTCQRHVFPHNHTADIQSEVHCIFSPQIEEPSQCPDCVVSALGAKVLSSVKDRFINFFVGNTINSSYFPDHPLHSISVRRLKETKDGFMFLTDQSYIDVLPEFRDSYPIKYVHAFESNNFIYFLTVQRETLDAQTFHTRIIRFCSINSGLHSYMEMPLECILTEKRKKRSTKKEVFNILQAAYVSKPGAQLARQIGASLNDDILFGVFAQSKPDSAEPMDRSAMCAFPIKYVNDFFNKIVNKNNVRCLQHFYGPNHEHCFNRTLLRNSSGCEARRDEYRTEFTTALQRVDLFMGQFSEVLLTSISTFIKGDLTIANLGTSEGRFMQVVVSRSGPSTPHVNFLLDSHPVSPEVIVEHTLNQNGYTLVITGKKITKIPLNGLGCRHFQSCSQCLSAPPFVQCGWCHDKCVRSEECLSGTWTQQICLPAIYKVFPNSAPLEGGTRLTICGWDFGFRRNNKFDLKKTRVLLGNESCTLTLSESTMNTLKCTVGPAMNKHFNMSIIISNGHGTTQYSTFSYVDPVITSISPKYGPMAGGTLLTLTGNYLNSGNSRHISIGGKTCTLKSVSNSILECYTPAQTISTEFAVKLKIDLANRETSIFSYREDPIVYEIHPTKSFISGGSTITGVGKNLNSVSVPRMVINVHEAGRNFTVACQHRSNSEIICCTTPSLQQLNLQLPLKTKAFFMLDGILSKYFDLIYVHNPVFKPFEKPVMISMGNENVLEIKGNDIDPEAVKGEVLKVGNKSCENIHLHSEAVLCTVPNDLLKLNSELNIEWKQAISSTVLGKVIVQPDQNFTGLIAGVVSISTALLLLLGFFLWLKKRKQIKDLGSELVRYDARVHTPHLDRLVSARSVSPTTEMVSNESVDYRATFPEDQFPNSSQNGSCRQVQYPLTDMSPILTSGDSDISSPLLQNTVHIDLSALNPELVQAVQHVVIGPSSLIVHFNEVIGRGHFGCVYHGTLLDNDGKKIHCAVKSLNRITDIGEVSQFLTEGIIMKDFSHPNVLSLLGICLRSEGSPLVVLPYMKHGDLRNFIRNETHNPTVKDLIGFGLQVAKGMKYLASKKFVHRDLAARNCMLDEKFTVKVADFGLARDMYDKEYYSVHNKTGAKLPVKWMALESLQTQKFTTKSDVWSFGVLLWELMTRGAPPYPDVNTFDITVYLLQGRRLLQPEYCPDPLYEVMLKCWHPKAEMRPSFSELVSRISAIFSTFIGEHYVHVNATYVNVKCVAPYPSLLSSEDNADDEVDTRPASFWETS
# protocol_text: Ki determination for the inhibition of c-Met kinase activity (standard coupled enzyme system)
# Type: biochemical
# measurement_conditions: coupled enzyme system, 200 μM ATP, 10 μM polyGluTyr, 80 nM c-Met, 30° C.; read-out: c-Met Ki
pKi: −log10 of the molar value.
experimental_readout: pKi

>>> print(df.to_string())
                                   molecule                       subject_of_test  experimental_readout  observed_measurement
0  Clc1ccc(Nc2nn3c(Cc4ccc5c(c4)OCO5)nnc3s2)cc1 [Compound 56]  c-Met (Homo sapiens, UniProt P08581)                   pKi          5.70 to 7.00
1  COc1ccc(Cc2nnc3ccc(Nc4cccc(CCO)c4)nn23)cc1 [Compound 266]  c-Met (Homo sapiens, UniProt P08581)                   pKi          5.70 to 7.00
2  CC(c1ccc(O)cc1)c1nnc2sc(Nc3cccnc3)nn12 (stereo not drawn) [Compound 82]  c-Met (Homo sapiens, UniProt P08581)                   pKi                > 7.00
3  CC(c1ccc(O)cc1)c1nnc2sc(Nc3ccc(Cl)cc3)nn12 (stereo not drawn) [Compound 53]  c-Met (Homo sapiens, UniProt P08581)                   pKi                > 7.00
4  FC(F)(F)c1cccc(Nc2ccc3nnc(Cc4ccncc4)n3n2)c1 [Compound 227]  c-Met (Homo sapiens, UniProt P08581)                   pKi          5.70 to 7.00

Exercise: Value wanted: pKi (c-Met (Homo sapiens, UniProt P08581)) of entry CC(C)[C@@H](N)C(=O)Oc1ccc([C@H](C)c2nnc3sc(Nc4cccc(Cl)c4)nn23)cc1 [Compound 168]
Solution: > 7.00

Exercise: Next molecule up: Oc1ccc(Cc2nnc3sc(Nc4cccc(F)c4Cl)nn23)cc1Cl [Compound 103]
Solution: 5.70 to 7.00

Exercise: Next molecule up: Oc1ccc(Cc2nnc3sc(Nc4ccc(Cl)cc4)nn23)cc1 [Compound 52]
Solution: > 7.00

Exercise: Next molecule up: CNc1nn2c(Cc3ccc(O)cc3)nnc2s1 [Compound 14]
Solution: 5.70 to 7.00

Exercise: Next molecule up: O=C1CCN(c2ccc3nnc(Cc4ccc(O)cc4)n3n2)CCN1 [Compound 190]
Solution: 5.70 to 7.00

Exercise: Next molecule up: COc1ccc(Cc2nnc3ccc(Nc4cccc(C)c4)nn23)cc1 [Compound 229]
Solution: 5.70 to 7.00

Exercise: Next molecule up: COC(=O)c1cccc(Nc2nn3c(Cc4ccc(O)cc4)nnc3s2)c1 [Compound 61]
Solution: > 7.00

Exercise: Next molecule up: OCc1cccc(Nc2ccc3nnc(Cc4ccc(O)cc4)n3n2)c1 [Compound 259]
Solution: > 7.00

Exercise: Next molecule up: Oc1ccc(Cc2nnc3sc(Nc4cccc(F)c4)nn23)cc1 [Compound 59]
Solution: > 7.00

Exercise: Next molecule up: Oc1cccc(CCc2nnc3sc(Nc4cc(F)cc(F)c4)nn23)c1 [Compound 120]
Solution: < 5.70

Exercise: Next molecule up: c1cncc(Nc2nn3c(Cc4ccc5c(c4)OCO5)nnc3s2)c1 [Compound 84]
Solution: 5.70 to 7.00

Exercise: Next molecule up: Oc1ccc(Cc2nnc3ccc(NCc4cccc(F)c4)nn23)cc1 [Compound 268]
Solution: 5.70 to 7.00

Exercise: Next molecule up: Fc1cccc(Nc2ccc3nnc(Cc4ccncc4)n3n2)c1 [Compound 220]
Solution: 5.70 to 7.00

Exercise: Next molecule up: CC(c1ccc(O)cc1)c1nnc2sc(Nc3ccccc3Cl)nn12 (stereo not drawn) [Compound 66]
Solution: > 7.00

Exercise: Next molecule up: CSc1cccc(Nc2nn3c(Cn4ccc5c(O)cccc54)nnc3s2)c1 [Compound 169]
Solution: > 7.00

Exercise: Next molecule up: CN(C)c1ccc(Cc2nnc3ccc(-c4ccccc4)nn23)cc1 [Compound 212]
Solution: < 5.70

Exercise: Next molecule up: OCc1cccc(Nc2ccc3nnc(Cc4ccc(O)c(F)c4)n3n2)c1 [Compound 260]
Solution: 5.70 to 7.00

Exercise: Next molecule up: CCC(C)c1ccc(Nc2ccc3nnc(Cc4ccc(O)cc4)n3n2)cc1 (stereo not drawn) [Compound 183]
Solution: 5.70 to 7.00

---

# subject_of_test: UniProt P08581
# protocol_text: Ki determination for the inhibition of c-Met kinase activity (standard coupled enzyme system)
# Assay type: biochemical
# measurement_conditions: coupled enzyme system, 200 μM ATP, 10 μM polyGluTyr, 80 nM c-Met, 30° C.; read-out: c-Met Ki
pKi: −log10 of the molar value.
experimental_readout: pKi

Exercise: I'd like to know its pKi. The molecule in question is "Oc1ccc(Cc2nnc3sc(Nc4cccc(F)c4F)nn23)cc1Cl"
Solution: > 7.00

---

The compounds listed here are annotated with their pKi.
# subject_of_test: UniProt:P08581
# protocol_text: Ki determination for the inhibition of c-Met kinase activity (standard coupled enzyme system)
# Format: biochemical
# measurement_conditions: coupled enzyme system, 200 μM ATP, 10 μM polyGluTyr, 80 nM c-Met, 30° C.; read-out: c-Met Ki
pKi: −log10 of the molar value.

The examples below pair each entry with its known result.
                                   compound  subject_of_test  observed_measurement
0  CC(c1ccc(O)cc1)c1nnc2sc(Nc3cccc(Cl)c3F)nn12 (stereo not shown)   UniProt:P08581                > 7.00
1  Oc1cccc(Cc2nnc3sc(Nc4cccc(C(F)(F)F)c4)nn23)c1   UniProt:P08581          5.70 to 7.00
2  Oc1ccc(Cc2nnc3ccc(N4CCCC4c4ccc(F)cc4)nn23)cc1 (stereo not shown)   UniProt:P08581                < 5.70
3  CC(C)Oc1cccc(Nc2ccc3nnc(Cc4ccc(O)cc4)n3n2)c1   UniProt:P08581                > 7.00
4  COc1cccc(Nc2nn3c(Cc4ccc(O)c(Cl)c4)nnc3s2)c1   UniProt:P08581          5.70 to 7.00

Exercise: I'd like to know its pKi. The compound in question is "COc1ccc(Cc2nnc3ccc(Nc4cccc(C(F)(F)F)c4)nn23)cc1"
Solution: 5.70 to 7.00

Exercise: Next compound up: "O=C(Nc1cccc(Cl)c1)Nc1nn2c(Cc3ccc(O)cc3)nnc2s1"
Solution: < 5.70

Exercise: Next compound up: "c1ccc(-c2ccc3nnc(CNc4cccnc4)n3n2)cc1"
Solution: < 5.70
